Molecular target: trypsin-activated recombinant human renin (Homo sapiens, UniProt P00797)
Sequence (P00797 67-406): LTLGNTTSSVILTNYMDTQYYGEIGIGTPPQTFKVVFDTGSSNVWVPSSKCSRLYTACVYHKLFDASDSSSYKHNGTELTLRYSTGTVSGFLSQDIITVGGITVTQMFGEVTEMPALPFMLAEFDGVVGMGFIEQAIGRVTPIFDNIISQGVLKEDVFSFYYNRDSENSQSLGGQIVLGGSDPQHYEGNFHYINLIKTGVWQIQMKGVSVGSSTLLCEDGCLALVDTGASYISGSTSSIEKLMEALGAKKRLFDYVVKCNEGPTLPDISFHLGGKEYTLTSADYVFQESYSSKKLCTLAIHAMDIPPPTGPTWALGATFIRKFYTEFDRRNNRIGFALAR
Assay: Renin fluorescence assay (internally quenched peptide substrate)
Type: biochemical
Conditions: compounds of Formula (XL)
MEASUREMENT LABEL: IC50

COMPOUND	MEASURED TARGET	IC50
COC(=O)NCCO[C@@H](c1cc(Cl)ccc1C)[C@@H]1CCCN(C(=O)NC[C@@H](N)C[C@H]2CCCOC2)C1 [XL-5]	trypsin-activated recombinant human renin (Homo sapiens, UniProt P00797)	< 1 nM

// query IC50 value for entry COC(=O)NCCO[C@@H](c1cccc(Cl)c1)[C@@H]1CCCN(C(=O)NC[C@@H](N)C[C@H]2CCCOC2)C1 [XL-1] < 10 nM

// query: CN[C@H](CNC(=O)N1CCC[C@@H]([C@@H](OCCNC(=O)OC)c2cc(Cl)ccc2C)C1)C[C@H]1CCCOC1 [XL-8] < 1 nM

Lookup COC(=O)NCCO[C@@H](c1cc(F)cc(F)c1)[C@@H]1CCCN(C(=O)NC[C@@H](N)C[C@H]2CCCOC2)C1 [XL-4] < 10 nM

Now try CN[C@H](CNC(=O)N1CCC[C@@H]([C@@H](OCCNC(=O)OC)c2cccc(Cl)c2)C1)C[C@H]1CCCOC1 [XL-7] . < 1 nM

Next compound up: COC(=O)NCCO[C@@H](c1cc(F)ccc1C)[C@@H]1CCCN(C(=O)NC[C@@H](N)C[C@H]2CCCOC2)C1 [XL-6] < 10 nM

Same thing, different compound: COC(=O)NCCO[C@@H](c1cc(F)cc(Cl)c1)[C@@H]1CCCN(C(=O)NC[C@@H](N)C[C@H]2CCCOC2)C1 [XL-3] < 10 nM

// query: COC(=O)NCCO[C@@H](c1cccc(F)c1)[C@@H]1CCCN(C(=O)NC[C@@H](N)C[C@H]2CCCOC2)C1 [XL-2] < 10 nM

###

Molecular target: trypsin-activated recombinant human renin (Homo sapiens)
Assay: Renin fluorescence assay (internally quenched peptide substrate)
Format: biochemical
Conditions: compounds I*
MEASUREMENT LABEL: IC50

Reference set, count: 3
COMPOUND	EXPERIMENTAL RESULT
CNC[C@H](CC1CCCCC1)NC(=O)N1CCC[C@@H]([C@@](C)(OCC(=O)NC)c2cccc(Cl)c2)C1 [I*-25a]	> 50 nM
CNC[C@H](CC1CCCC1)NC(=O)N1CCC[C@@H]([C@@H](OCCNC(=O)OC)c2cccc(F)c2)C1 [I*-5a]	< 10 nM
CNC[C@H](CC1CCCCC1)NC(=O)N1CCC[C@@H]([C@@H](OCCNC(=O)OC)c2nc(C)cs2)C1 [I*-32a]	< 10 nM

Could you now look at the following compound, please?
Given the entry CNC[C@H](CC1CCCCC1)NC(=O)N1CCC[C@@H]([C@@H](OCCCC(=O)NC)c2cccc(Cl)c2)C1 [I*-45a] , report its measured IC50. < 50 nM
